B1: F1*; the commonest letter at each place (parent)
chain: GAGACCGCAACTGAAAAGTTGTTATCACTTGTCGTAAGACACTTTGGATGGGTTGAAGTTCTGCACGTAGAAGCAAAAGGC

# Variants of: B1
# assay_name: fraction ligated after 30 min (ligated reads / total reads); higher = more ligase activity
# test_conditions: with F1*sub RNA substrate (template-directed ligation), 42 °C
measured_endpoint: fraction ligated
Write no unit; give the number alone.

Illustrative cases are given below, each with its answer.
[
  {
    "variant_string": "C33A A37G",
    "fraction ligated": 0.872
  },
  {
    "variant_string": "A39T C42T",
    "fraction ligated": 0.829
  },
  {
    "variant_string": "A39C G50C",
    "fraction ligated": 0.123
  },
  {
    "variant_string": "G31C C42T",
    "fraction ligated": 0.786
  }
]

Which fraction ligated is reported for this variant? A39G T49G
0.791

Let us now turn to T43G A48C
0.625

Now this one: A27T G50C
0.238

And the next one, G38A G47C ?
0.163

FYI, the data here is from the supplement of paper PMC6755084.
